B1: DLC1 (parent)
chain: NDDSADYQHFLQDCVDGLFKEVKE

variants of: B1; experiment: protein stability index of a GFP-peptide fusion (GPS, HEK-293T) (PSI 1-6); higher = more stable; conditions: c terminus: a fixed tail appended;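 also: lentivirally expressed fusions sorted by FACS into six bins by GFP to DsRed ratio, PSI derived from sequencing read proportions per bin multiplied by bin number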
Entries and their measured protein stability index follow.
metric_name: protein stability index

{"variant_descriptor": "H9V", "metric_name": "protein stability index", "measured_number": 1.92}
{"variant_descriptor": "E24A", "metric_name": "protein stability index", "measured_number": 2.17}
{"variant_descriptor": "V22K", "metric_name": "protein stability index", "measured_number": 5.5}
{"variant_descriptor": "Q8D", "metric_name": "protein stability index", "measured_number": 2.96}
{"variant_descriptor": "G17Q", "metric_name": "protein stability index", "measured_number": 2.44}
{"variant_descriptor": "D13P", "metric_name": "protein stability index", "measured_number": 2.27}
{"variant_descriptor": "D13T", "metric_name": "protein stability index", "measured_number": 2.16}
{"variant_descriptor": "D6Q", "metric_name": "protein stability index", "measured_number": 3.12}
{"variant_descriptor": "E21I", "metric_name": "protein stability index", "measured_number": 3.01}
{"variant_descriptor": "G17E", "metric_name": "protein stability index", "measured_number": 2.41}
{"variant_descriptor": "L18R", "metric_name": "protein stability index", "measured_number": 4.58}
{"variant_descriptor": "D13G", "metric_name": "protein stability index", "measured_number": 2.42}
{"variant_descriptor": "F19H", "metric_name": "protein stability index", "measured_number": 4.82}
{"variant_descriptor": "D6A", "metric_name": "protein stability index", "measured_number": 2.32}
{"variant_descriptor": "Y7C", "metric_name": "protein stability index", "measured_number": 2.55}
{"variant_descriptor": "Q8G", "metric_name": "protein stability index", "measured_number": 2.75}
{"variant_descriptor": "D6H", "metric_name": "protein stability index", "measured_number": 3.3}
{"variant_descriptor": "K23W", "metric_name": "protein stability index", "measured_number": 2.66}
{"variant_descriptor": "V15T", "metric_name": "protein stability index", "measured_number": 5.09}
{"variant_descriptor": "D6L", "metric_name": "protein stability index", "measured_number": 2.03}
{"variant_descriptor": "F19T", "metric_name": "protein stability index", "measured_number": 5.45}
{"variant_descriptor": "V22H", "metric_name": "protein stability index", "measured_number": 5.31}
{"variant_descriptor": "H9K", "metric_name": "protein stability index", "measured_number": 2.63}
{"variant_descriptor": "L11W", "metric_name": "protein stability index", "measured_number": 3.78}
{"variant_descriptor": "D3C", "metric_name": "protein stability index", "measured_number": 1.71}
{"variant_descriptor": "V15Y", "metric_name": "protein stability index", "measured_number": 3.61}
{"variant_descriptor": "K20D", "metric_name": "protein stability index", "measured_number": 5.24}
{"variant_descriptor": "V22T", "metric_name": "protein stability index", "measured_number": 4.87}
{"variant_descriptor": "C14T", "metric_name": "protein stability index", "measured_number": 4.12}
{"variant_descriptor": "D6F", "metric_name": "protein stability index", "measured_number": 2.81}
{"variant_descriptor": "V22C", "metric_name": "protein stability index", "measured_number": 4.3}
{"variant_descriptor": "F10L", "metric_name": "protein stability index", "measured_number": 1.62}
{"variant_descriptor": "F19Q", "metric_name": "protein stability index", "measured_number": 5.08}
{"variant_descriptor": "D2A", "metric_name": "protein stability index", "measured_number": 2.17}
{"variant_descriptor": "A5F", "metric_name": "protein stability index", "measured_number": 1.68}
{"variant_descriptor": "Q8A", "metric_name": "protein stability index", "measured_number": 2.4}
{"variant_descriptor": "D13R", "metric_name": "protein stability index", "measured_number": 2.02}
{"variant_descriptor": "D16A", "metric_name": "protein stability index", "measured_number": 2.08}
{"variant_descriptor": "Q12R", "metric_name": "protein stability index", "measured_number": 2.42}
{"variant_descriptor": "D16N", "metric_name": "protein stability index", "measured_number": 2.81}
{"variant_descriptor": "C14D", "metric_name": "protein stability index", "measured_number": 5.03}

Numbers sourced from the supplement of paper PMC10567573.
